test system: HEK293FT dCK*-IKZF1; experiment: relative growth recovery (pomalidomide 10 uM = 100%, DMSO = 0%); higher = more growth rescue (IKZF1 fusion degradation); conditions: compound concentration: 5 uM; AraC concentration: 0.3 uM; overnight pretreatment + 4 days AraC
Counter-ions that a name gives are not always drawn.

COMPOUND	relative growth recovery
CCC(=O)N1CCN(c2ccc(-n3c(=O)ccc4cnc5ccc(-c6cnc7ccccc7c6)cc5c43)cc2C(F)(F)F)CC1	-10.5%
CN(C)CCCN1c2ccccc2Sc2ccccc21	-2.24%
CN(C)c1ccc(C(=C2C=CC(=[N+](C)C)C=C2)c2ccc(N(C)C)cc2)cc1	-13.1%
CC1(C)CCC2=C(O1)c1ccccc1C(=O)C2=O	-10.9%
CC[C@]1(O)C[C@H]2CN(CCc3c([nH]c4ccccc34)[C@@](C(=O)OC)(c3cc4c(cc3OC)N(C)[C@H]3[C@@](O)(C(N)=O)[C@H](O)[C@]5(CC)C=CCN6CC[C@]43[C@@H]65)C2)C1 [Vindesine Sulfate]	-11.6%
Cc1nc(Nc2ncc(C(=O)Nc3c(C)cccc3Cl)s2)cc(N2CCN(CCO)CC2)n1	-7.9%
C=C1/C(=C\C=C2/CCC[C@]3(C)[C@@H]([C@H](C)/C=C/[C@H](C)C(C)(C)O)CC[C@@H]23)C[C@@H](O)C[C@@H]1O	6.62%
C=C1C(=O)O[C@H]2[C@H]1CC/C(C)=C/CC[C@@]1(C)O[C@@H]21 [parthenolide]	-10.5%
CSCC[C@H](N)C(=O)O	1.19%
COc1cc([C@@H]2c3cc4c(cc3[C@@H](O[C@@H]3O[C@@H]5COC(c6cccs6)O[C@H]5[C@H](O)[C@H]3O)[C@H]3COC(=O)C23)OCO4)cc(OC)c1O (stereo partly drawn) [Teniposide]	-12.5%
c1ccc(CNc2nc(NCc3ccccc3)c3ccccc3n2)cc1	-4.85%
Cc1ncsc1-c1ccc(CNC(=O)[C@@H]2C[C@@H](O)CN2C(=O)[C@@H](NC(=O)COCCOCCOc2ccc(-c3ccc4ncnc(Nc5ccc(OCc6cccc(F)c6)c(Cl)c5)c4c3)cc2)C(C)(C)C)cc1	19.7%
Oc1c(Cl)cc(Cl)c(Cl)c1Cc1c(O)c(Cl)cc(Cl)c1Cl	0.025%
CO[C@H]1/C=C/O[C@@]2(C)Oc3c(C)c(O)c4c(O)c(cc(O)c4c3C2=O)NC(=O)/C(C)=C\C=C\[C@H](C)[C@H](O)[C@@H](C)[C@@H](O)[C@@H](C)[C@H](OC(C)=O)[C@@H]1C [Rifamycin SV Sodium]	0.23%
CC(C)[C@H]1c2ccc(F)cc2CC[C@@]1(CCN(C)CCCc1nc2ccccc2[nH]1)OC(=O)C1CC1	-9.29%
O=C(Nc1ccc(C(O)(C(F)(F)F)C(F)(F)F)cc1)c1ccc(C(F)(F)F)cc1	53.1%
C[n+]1c2cc(N)ccc2cc2ccc(N)cc21.Nc1ccc2cc3ccc(N)cc3nc2c1 [Acriflavine hydrochloride]	-14%
COC(=O)C1=C(C)NC(C)=C(C(=O)OC/C=C/c2ccccc2)C1c1cccc([N+](=O)[O-])c1 (stereo not drawn)	-0.3%
O=C1c2ccccc2-c2n[nH]c3cccc1c23	-5.03%
O=C1Nc2ccc(I)cc2/C1=C/c1cc(Br)c(O)c(Br)c1	-2.06%
C=C1/C(=C\C=C2/CCC[C@]3(C)[C@@H]([C@H](C)/C=C/C=C/C(O)(CC)CC)CC[C@@H]23)C[C@@H](O)C[C@@H]1O	6.88%
CC[C@]1(O)C[C@H]2C[N@@](CCc3c([nH]c4ccccc34)[C@@](C(=O)OC)(c3cc4c(cc3OC)N(C=O)[C@H]3[C@@](O)(C(=O)OC)[C@H](OC(C)=O)[C@]5(CC)C=CCN6CC[C@]43[C@@H]65)C2)C1 [Vincristine (sulfate)]	-11.7%
Nc1ncn([C@H]2C[C@H](O)[C@@H](CO)O2)c(=O)n1	-11.4%

====

tested on: HEK293FT dCK*-only; test: relative growth in counter assay (no AraC = 100%, AraC + DMSO = 0%); higher = more growth rescue independent of IKZF1; conditions: compound concentration: 5 uM; AraC concentration: 0.3 uM; overnight pretreatment + 4 days AraC
EXPERIMENTAL_READOUT: relative growth in counter assay (%)

In [3]: df
Out[3]:
                                   molecule  quantitative_result
0  COC(=O)Nc1nc2cc(SC(C)C)ccc2[nH]1 [methiazole]                -32.7
1  CC(C)(C#N)c1ccc(N2C(=O)OCc3cnc4ccc(-c5cnc6ccccc6c5)cc4c32)cc1                 3.56
2  CCCCc1ccc2[nH]c(NC(=O)OC)nc2c1 [parbendazole]                -34.4
3  NC(=O)N1c2ccccc2CC(O)c2ccccc21 (centres undefined) [licarbazepine]                -2.99

====

system: HEK293FT dCK*-IKZF1; test: relative growth recovery (pomalidomide 10 uM = 100%, DMSO = 0%); higher = more growth rescue (IKZF1 fusion degradation); conditions: compound concentration: 5 uM; AraC concentration: 0.3 uM; overnight pretreatment + 4 days AraC
Structures can show the parent of a compound that is named as a salt.
EXPERIMENTAL_READOUT: relative growth recovery (%)

In [3]: df
Out[3]:
                                   compound  unit_of_measure  quantitative_result
0  CCCCC1OC(=O)c2ccccc21 (stereo unspecified) [Butylphthalide]                %                 1.08
1  N=c1ccn2c(n1)O[C@H]1[C@H](O)[C@@H](CO)O[C@H]12 [Cyclocytidine HCl]                %                -12.9
2  C[C@H]1COC2=C1C(=O)C(=O)c1c2ccc2c1CCCC2(C)C                %               -0.045
3  COC(=O)C1=C(C)NC(C)=C(C(=O)OC(C)C)C1c1cccc2nonc12 (stereo unspecified)                %                  1.6
4  CC(=O)N(O)[C@@H]1c2cc(C#N)ccc2OC(C)(C)[C@H]1O                %                -2.73
5  CCCCCCCCN=c1ccn(CCCCCCCCCCn2ccc(=NCCCCCCCC)cc2)cc1 [Octenidine Dihydrochloride]                %                -14.7

====

This listing pairs compounds with measured relative growth recovery.
system: HEK293FT dCK*-IKZF1; experiment: relative growth recovery (pomalidomide 10 uM = 100%, DMSO = 0%); higher = more growth rescue (IKZF1 fusion degradation); conditions: compound concentration: 5 uM; AraC concentration: 0.3 uM; overnight pretreatment + 4 days AraC
EXPERIMENTAL_READOUT: relative growth recovery (%)

                        structure_as_smiles  quantitative_result
0  COc1cc(NS(C)(=O)=O)ccc1Nc1c2ccccc2nc2ccccc12                -13.2
1  COc1c(C/C=C(\C)CCC(=O)O)c(O)c2c(O)occ2c1C                -9.99
2  COc1ccc(NC(=O)c2ccc(-c3ccc(-c4noc(C)n4)cc3C)cc2)cc1N1CCN(C)CC1                 1.76
3    CN1CCN(CCCN2c3ccccc3Sc3ccc(Cl)cc32)CC1                 1.47
4             Nc1ccc(S(=O)(=O)Nc2ncccn2)cc1                 2.56
5   O=C(O)c1cc(N=Nc2ccc(O)c(C(=O)O)c2)ccc1O                -1.08

====

test system: HEK293FT dCK*-only; assay: relative growth in counter assay (no AraC = 100%, AraC + DMSO = 0%); higher = more growth rescue independent of IKZF1; settings: compound concentration: 5 uM; AraC concentration: 0.3 uM; overnight pretreatment + 4 days AraC
Where a name gives a salt, the structure may show the parent alone.
EXPERIMENTAL_READOUT: relative growth in counter assay (%)

In [3]: df
Out[3]:
                                    molecule              experimental_readout  quantitative_result
 0  C=C1C(=O)O[C@H]2[C@H]1CC/C(C)=C\CC[C@@]1(C)O[C@@H]21 [Parthenolide ((-)-Parthenolide)]  relative growth in counter assay                -33.7
 1  COc1ccc(CN2CCN(C(c3ccc(F)cc3)c3ccc(F)cc3)CC2)c(OC)c1OC  relative growth in counter assay                 1.19
 2  CCOC(=O)C1=C(C)NC(C)=C(C(=O)OC)C1c1cccc([N+](=O)[O-])c1 (configuration not stated)  relative growth in counter assay                -1.02
 3  COc1cc2c(cc1OC)[C@@H]1Cc3ccc(OC)c(OC)c3CN1CC2 [Rotundine]  relative growth in counter assay                -31.5
 4  COc1cc(NC(=O)c2ccc(-c3ccc(Cl)cc3)o2)cc(OC)c1  relative growth in counter assay                 14.9
 5  Cc1c(S(=O)(=O)O)oc2c1C(=O)C(=O)c1c-2ccc2c1CCCC2(C)C [sodium-tanshinone-ii-a-sulfonate]  relative growth in counter assay                 4.38
 6  Clc1ccc(C(Cn2ccnc2)OCc2ccc(Sc3ccccc3)cc2)c(Cl)c1 (configuration not stated) [Fenticonazole nitrate]  relative growth in counter assay                -4.73
 7  OCCN=CCNc1ccc(NCCNCCO)c2c(O)c3c(O)ccc(O)c3c(O)c12 [Mitoxantrone HCl]  relative growth in counter assay                -34.8
 8                 CCOC(=O)Nc1nc2ccccc2[nH]1  relative growth in counter assay                 2.38
 9  O=C(O)c1ccc(S(=O)(=O)N(Cc2ccc(OC(F)(F)F)cc2)c2ncc(C(F)(F)F)cc2Cl)cc1  relative growth in counter assay                 5.77
10  Clc1ccc(C(Cn2ccnc2)OCc2c(Cl)cccc2Cl)c(Cl)c1 (configuration not stated) [Isoconazole nitrate (Travogen)]  relative growth in counter assay                  0.7
11                       CCOC(=O)c1ccc(N)cc1  relative growth in counter assay                -10.5
12  CN(C)CCN1C(=O)c2cccc3cc(N)cc(c23)C1=O [Amonafide]  relative growth in counter assay                -32.4
13  CCCS(=O)c1ccc2nc(NC(=O)OC)[nH]c2c1 (configuration not stated) [Albendazole Oxide (Ricobendazole)]  relative growth in counter assay                -7.11
14  FC(F)(F)c1ccccc1-c1cc(C(F)(F)F)c2[nH]c(C3=NOC4(CCCCC4)C3)nc2c1  relative growth in counter assay                -7.93
15  C[C@H](NCc1ccc(OCc2ccccc2F)cc1)C(N)=O [priralfinamide]  relative growth in counter assay                -0.94
16  O=C1CCC(N2C(=O)c3ccccc3C2=O)C(=O)N1 (configuration not stated) [thalidomide]  relative growth in counter assay                 0.97
